The compounds below each have a reported pIC50 tested on Carbonic anhydrase 1 (Homo sapiens); the values come from various publications.
pIC50: −log10 of the molar value.

response.value for O=P(O)(O)C(Nc1cccc2ccccc12)P(=O)(O)O (field: pIC50) = < 5.00

response.value for Cc1ccc(S(=O)(=O)NCCCN(C)C)cc1 (field: pIC50) = < 4.30

response.value for O=P(O)(O)C(P(=O)(O)O)S(=O)(=O)c1ccc(Br)cc1 (field: pIC50) = < 5.00

response.value for O=[N+]([O-])c1ccc(S(=O)(=O)Nc2ccccc2)cc1 (field: pIC50) = < 4.30
